tested on: NCI-H23 lung; assay: NCI tumour cell line growth inhibition, 48 h
Could you please report measured TGI for the items listed next?

Summary for this compound, `CSC(=S)N(C)NC(=O)c1cccc(C(=O)NN(C)C(=S)SC)n1` : TGI is > 100 µM

Given item `O=C(NN=C1CCCCC1)Nc1ccccc1Cl` , the value recorded as its TGI is > 100 µM

For record `Cc1ccccc1NC(=S)N=Nc1c(O)[nH]c2ccccc12` the listed TGI is > 100 µM

Note to self: TGI recorded for CC(=O)OCC1OC(OCC2OC(N3C(=S)N[C@H]([C@@H](O)[C@H](O)[C@H](O)CO)[C@H]3O)C(OC(C)=O)C(OC(C)=O)C2OC(C)=O)C(OC(C)=O)C(OC(C)=O)C1OC(C)=O (some centres undefined) was > 100 µM

TGI reading for `O=C(N/C(=C\c1ccc([N+](=O)[O-])cc1)c1nc2[nH]c(=S)[nH]c(=O)c2[nH]1)c1ccccc1` : > 100 µM

// recorded TGI for `CC(=O)c1ccc2c(c1)oc(=O)n2CCN(C)C` : > 100 µM

So, N#CSCC1COc2ccccc2O1 (centres undefined) ? Its TGI was > 10 µM

Measured TGI, CCOC(OCC)C(CCc1ccccc1)c1c(N)nc(N)[nH]c1=O (centres undefined) : > 100 µM

Entry `COc1cc(/C=C(\NC(=O)c2ccccc2)c2nc3ccc([N+](=O)[O-])cc3[nH]2)cc(OC)c1OC` ; TGI = > 100 µM

====

Please provide measured TGI for the entries that follow.
system: OVCAR-4 ovarian; assay: NCI tumour cell line growth inhibition, 48 h

# TGI of `c1ccc([C@H]2CN3CCSC3=N2)cc1` = > 100 µM

Summary for this compound, `COc1cc(C(=O)/C=C/c2c(-c3ccc(F)cc3)nc3sccn23)cc(OC)c1OC` : TGI is 38.1 µM

For reference, reported TGI for CC1OC(OC2C(OC3C[C@@]4(C)C(C[C@H](O)[C@H]5[C@H](C6(C)CCC(C(C)(C)O)O6)CCC54C)[C@]4(C)CC[C@@H](O)C(C)(C)C34)OC(CO)C(O)C2O)C(O)C(O)C1O (some centres undefined) (tested in a mixture with another compound) stands at > 100 µM

Short answer for OC(COc1ccc(Cl)cc1Cl)CN1CCCC1 (centres undefined) : TGI was > 100 µM

Short answer for CCCCCC(/C=C/[C@@H]1CC(=O)C[C@H]1O[Si](C)(C)C(C)(C)C)OCOCCOC (some centres undefined) : TGI was 26.3 µM

What the record says about `COc1ccc(N2CCN(CC(=O)N3CCN(c4nnc(-c5ccccc5)c(-c5ccccc5)n4)CC3)CC2)cc1` : TGI is > 100 µM

// TGI value for O=c1[nH]c(=O)n(C2CC(O)C(CO)O2)cc1NN=NCc1ccccc1 (centres undefined) : > 100 µM

The value of TGI measured for the compound `CN(C)c1nc(N(C)C)nc(N(C)CN(C)c2nc(N(C)C)nc(N(C)C)n2)n1` turned out to be > 100 µM

According to the records, this compound CCCCCCC(CCl)c1sc(-c2csc(CCNC(=O)OC(C)(C)C)n2)nc1C(=O)OC (centres undefined) displays TGI of 78 µM

Record `COc1cc2c(cc1OCCCCC(=O)Nc1ccc(-c3nc4ccccc4s3)cc1)N=C[C@@H]1CCCN1C2=O` . Reported TGI: 27.9 µM

Per the records, this compound ( `COc1cc(/C=C(\NC(=O)c2ccccc2)c2nc3ccc([N+](=O)[O-])cc3[nH]2)cc(OC)c1OC` ) has TGI equal to > 100 µM

Entry `Cc1ccnc(NC(=S)Nc2ccccc2Cl)c1` ; TGI = > 100 µM

Looking up `O=C1Cc2ccccc2N1/N=C\c1ccc(O)cc1` , I see its TGI listed as > 100 µM

According to the records, this compound `Cc1ccc(NC(=O)c2cccc([N+](=O)[O-])c2O)c(C)c1` displays TGI of > 100 µM

The recorded TGI for `Cn1c(=O)c(C(c2ccccc2)c2c(O)c3ccccc3n(C)c2=O)c(O)c2ccccc21` is > 100 µM

Notebook: `CCN(CC)C(=S)SNCCc1ccc(S(N)(=O)=O)cc1` , TGI read as 35.6 µM

For reference, reported TGI for `FC1CCN(C2(c3cccs3)CCCCC2)CC1` stands at > 100 µM

Please fill in: TGI reported for `Cc1ccccc1NC(=S)N=Nc1c(O)[nH]c2ccccc12` = > 100 µM

So for `CNC1=C(C)C(=O)C(C)=C(C(C)(C)CC(=O)n2cc(F)c(=O)[nH]c2=O)C1=O` , the logged TGI turned out to be > 100 µM

The compound identified as `O=[N+]([O-])c1cccc2nc3ccccc3c(NCCC[N+]3([O-])CCCCC3)c12` registered its TGI at 1.15 µM

The measured TGI associated with `O=C(c1ccc(Cl)cc1)N(Cc1cccnc1)C(=S)N(Cc1cccnc1)C(=O)c1ccc(Cl)cc1` reads 79.7 µM

// sample `C=C1C(=O)[C@]23[C@H](O)[C@H]1CC[C@H]2[C@@]12CO[C@@]3(O)C[C@@H]1C(C)(C)CC[C@@H]2O` , its TGI was > 25 µM

Form field TGI, entry `NNC(=O)CC(=O)Nc1ccccc1F` : > 100 µM

Note to self: TGI recorded for O=C1OCC2=C1C(c1cccc(F)c1)c1cc3c(cc1N2CCO)OCCO3 (centres undefined) was > 50 µM

====

For each record, write down the corresponding GI50.
tested on: UACC-62 melanoma; test: NCI tumour cell line growth inhibition, 48 h

// field: GI50; key: `Clc1ccccc1-c1nc2ccccc2[nH]1` ; value = > 100 µM

get_value(item= `COC(=O)[C@]12CC[C@@H](C)[C@H](C)[C@@H]1C1=CC[C@@H]3[C@@]4(C)C(c5ncon5)=C[C@@](C)(CO)C4=CC[C@@]3(C)[C@]1(C)CC2` , readout=GI50) returns 1.89 µM

Recorded result, `COC(=O)c1[nH]nc(-c2ccccc2)c1N1CCCCC1` , GI50: 17.3 µM

====

Exercise: for every item that follows, state its recorded GI50.
system: OVCAR-3 ovarian; assay: NCI tumour cell line growth inhibition, 48 h

Kindly note the recorded GI50 for `Nc1c(C(=O)Nc2cccc3ccccc23)sc2nc3c(cc12)CCCC3` , which is 0.577 µM

Just so you know, measured GI50 for `CC(=O)NNC(=O)c1nn(-c2ccc(Cl)cc2)cc1OC(C)=O` came out at 18.8 µM

Record summary for COc1cc2c(cc1OCCCCCCNC(=O)c1cc3ccccc3[nH]1)N=CC1CCCN1C2=O (stereo not given) : reported GI50 = 6.17 µM

# compound `COc1ccc(N2CCN(CC(=O)N3CCN(c4nnc(-c5ccccc5)c(-c5ccccc5)n4)CC3)CC2)cc1` ; its GI50 = 4.92 µM

Lab note: `Cc1cc(C)cc(Nc2nccc(-c3c(-c4ccc(F)cc4)ncn3C3CCNCC3)n2)c1` gave GI50 of 1.39 µM

====

tested on: SF-539 CNS; assay: NCI tumour cell line growth inhibition, 48 h
Give TGI for every item shown.

Lookup result for `O=C1c2c(c3c4ccccc4n4c3c3c2c2ccccc2n3C/C=C\C4)C(=O)N1Cc1ccccc1` ; measured TGI: > 100 µM

COc1cc2c3c(cc(Cl)nc3c1OC)C(O)(CC(C)=O)C(=O)N2 (stereo unspecified) yielded TGI of > 100 µM

Recorded TGI (compound COC(=O)C1(NC(=O)C(N)CC(=O)O)C(C)C1C (stereo unspecified) ): > 100 µM

Sure, the documented TGI for `O=c1c2c([nH]c3cc4c(cc13)OCO4)-c1ccccc1CCC2` is > 50 µM

Consider COC1=NN2C(OC)(c3ccccc3)c3c(-c4ccccc4)sc(-c4ccccc4)c3C2(c2ccccc2)S1 (stereo unspecified) . Its measured TGI is > 100 µM

Entry COC(=O)c1ccc(C)cc1C1CN=NC12Cc1cc(C)c(C)cc1C2=O (stereo unspecified) , TGI reported as > 100 µM

====

system: HOP-62 NSCLC; assay: NCI tumour cell line growth inhibition, 48 h
For each entry below, report its TGI value.

Lab note: compound `Cc1cc(-c2ccccc2)c(C)n1Cc1ccc(Cl)cc1` tested on HOP-62 NSCLC; recorded TGI was > 100 µM

Param item: `Cn1c2ccccc2c2cc(-c3ccccc3)c3c(c21)C(=O)C=CC3=O` ; param system: HOP-62 NSCLC; output TGI: > 76 µM

# value of TGI, HOP-62 NSCLC, item `CCCCNC(=S)/N=C/c1c(O)c2ccccc2oc1=O` = > 100 µM

Record COC(=O)C1(NC(=O)C(N)CC(=O)O)C(C)C1C (centres undefined) ; system HOP-62 NSCLC; TGI = > 100 µM
